assay-notes: Reduction of hydroxyl radical activity at 1 mM in presence of […] DMSO
Assay type: functional
Set-up: scale not given: the % may be the effect or the level left
A collection of compounds and their measured Activity

[
  {
    "compound": "O=C(O)/C(=C\\c1ccc[nH]1)c1ccccc1",
    "Activity / %": 88
  },
  {
    "compound": "O=C(O)/C(=C\\c1c(O)ccc2ccccc12)c1ccccc1",
    "Activity / %": 86
  },
  {
    "compound": "Cc1c(C)c2c(c(C)c1O)CCC(C)(C(=O)O)O2 (centres undefined)",
    "Activity / %": 88.2
  },
  {
    "compound": "CC(C)(C)c1cc(/C=C\\C(=O)O)c(O)c(C(C)(C)C)c1",
    "Activity / %": 83
  }
]

---

assay-notes: Reduction of hydroxyl radical activity at 0.1 mM in presence of […] DMSO
Type: functional
Design: scale not given: the % may be the effect or the level left
measurement-kind: Activity

[
  {
    "compound": "CC(C)(C)c1cc(/C=C(\\C(=O)O)c2ccccc2)c(O)c(C(C)(C)C)c1",
    "result": "92%"
  },
  {
    "compound": "CC(C)(C)c1cc(/C=C\\C(=O)O)c(O)c(C(C)(C)C)c1",
    "result": "96%"
  },
  {
    "compound": "O=C(O)/C=C\\c1ccc[nH]1",
    "result": "94%"
  },
  {
    "compound": "O=C(O)/C(=C\\c1ccc[nH]1)c1ccccc1",
    "result": "96%"
  },
  {
    "compound": "Cc1c(C)c2c(c(C)c1O)CCC(C)(C(=O)O)O2 (stereo unspecified)",
    "result": "73.4%"
  },
  {
    "compound": "O=C(O)/C(=C\\c1c(O)ccc2ccccc12)c1ccccc1",
    "result": "94%"
  }
]

---

assay-notes: Inhibition of heme-dependent lipid peroxidation
Type: functional
Parameters: concentration or dose not given beside the values
protocol-conditions: dose or concentration not given here
measurement-kind: inhibition (%)

[
  {
    "smiles-representation": "O=C(O)/C(=C\\c1c(O)ccc2ccccc12)c1ccccc1",
    "measurement-kind": "inhibition",
    "recorded-number": 74
  },
  {
    "smiles-representation": "O=C(O)/C=C\\c1c(O)ccc2ccccc12",
    "measurement-kind": "inhibition",
    "recorded-number": 69
  },
  {
    "smiles-representation": "O=C(O)/C(=C\\c1ccc[nH]1)c1ccccc1",
    "measurement-kind": "inhibition",
    "recorded-number": 60
  },
  {
    "smiles-representation": "O=C(O)/C=C\\c1ccc[nH]1",
    "measurement-kind": "inhibition",
    "recorded-number": 73
  },
  {
    "smiles-representation": "CC(C)(C)c1cc(/C=C\\C(=O)O)c(O)c(C(C)(C)C)c1",
    "measurement-kind": "inhibition",
    "recorded-number": 71
  },
  {
    "smiles-representation": "O=C(O)/C=C/c1ccc(O)c(O)c1",
    "measurement-kind": "inhibition",
    "recorded-number": 22
  },
  {
    "smiles-representation": "CC(C)(C)c1cc(/C=C(\\C(=O)O)c2ccccc2)c(O)c(C(C)(C)C)c1",
    "measurement-kind": "inhibition",
    "recorded-number": 71
  }
]
